The values you see were collected from PubChem BioAssay (NCI).

- test: NCI Yeast Anticancer Drug Screen. Data for the bub3 strain (AID 167)
- assay.setup: S. cerevisiae bub3 mutant strain, at 50.0 µM (retest, dose inferred, filed as 5.0), hits give high values
The panel holds about 79,000 compounds, 15% with a hit somewhere; the sample as a whole holds those more often. The source made the active and inactive calls. Cut-off read from the data, not from the text of the source: active = growth inhibition above about 70%; inactive = the rest. Where a SMILES comes first, the peptide text is derived from it. [ ]: non-standard residue; d: D form. The star is where a group is joined. mTyr = N[CH](Cc1cccc(O)c1)C(=O)O; Cbz = O=C(OCc1ccccc1)*; OBn = c1ccc(CO*)cc1
reported.endpoint: growth inhibition

[
  {
    "molecule": "COc1ccccc1NC(=O)C1=C(C)NC(C)=C(C(=O)Nc2ccccc2OC)C1c1ccc(OC)c(OC)c1",
    "growth inhibition": "51% (inactive)"
  },
  {
    "molecule": "CCOC(=O)Nc1cc2c(c(N)n1)N=C(c1ccccc1)CN2",
    "growth inhibition": "80% (active)"
  },
  {
    "molecule": "CC12C=CC(=O)C=C1CCC1C3CCC(O)(C(=O)CO)C3(C)CC(O)C12F (stereo not drawn)",
    "growth inhibition": "82% (active)"
  },
  {
    "molecule": "Oc1ccccc1C(=NNc1ccccc1)c1ccccc1O",
    "growth inhibition": "98% (active)"
  },
  {
    "molecule": "O=[N+]([O-])/C(Cl)=C/C(=C1/Nc2ccccc2O1)[N+](=O)[O-]",
    "growth inhibition": "53% (inactive)"
  },
  {
    "molecule": "CCC1C(c2cccc(OC)c2O)c2cc3c(cc2OC1N1CCCC1)OCO3 (stereo not drawn)",
    "growth inhibition": "26% (inactive)"
  },
  {
    "molecule": "C1CNC(CCNCCSCCNCCC2=NCCN2)=N1",
    "growth inhibition": "89% (active)"
  },
  {
    "molecule": "COC(=O)C(Cc1cccc(O)c1)NC(=O)C(CC(=O)OCc1ccccc1)NC(=O)OCc1ccccc1 (stereo not drawn) (Cbz-Asp(OBn)-[mTyr]-OMe; configuration not given here)",
    "growth inhibition": "55% (inactive)"
  }
]

Prompt: Looking for the measured growth inhibition of CC(=O)OCC1OC(OC2C=C(O[Si](C)(C)C)C[C@H]3C(=O)C=CC(=O)[C@@H]23)C(OC(C)=O)C(OC(C)=O)C1OC(C)=O (stereo partly drawn) , can you help?
Completion: 93% (active)

Prompt: Field entry: COC1CC(OC(=O)c2ccccc2)C(OC(=O)c2ccccc2)C(C)O1 (stereo not drawn)
Completion: 64% (inactive)

Prompt: Continue with CC(C)CCSc1ncnc2nc[nH]c12
Completion: 8% (inactive)

Prompt: Moving on to CN1CC[C@@H](c2ccccc2)[C@@H](O)C1
Completion: -3% (inactive)

Prompt: Also, O=C(OC1C2CCC2C2CC21)c1ccc([N+](=O)[O-])cc1[N+](=O)[O-] (stereo not drawn) please.
Completion: 93% (active)
